# systemTested: Prostaglandin E synthase (Homo sapiens, UniProt O14684)
# Sequence (O14684 whole entry): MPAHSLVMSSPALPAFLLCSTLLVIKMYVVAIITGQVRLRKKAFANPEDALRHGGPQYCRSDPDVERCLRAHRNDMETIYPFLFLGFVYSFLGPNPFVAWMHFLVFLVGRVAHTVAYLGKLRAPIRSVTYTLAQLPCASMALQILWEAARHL
# testName: Inhibition of mPGES1 in IL-1beta-stimulated human A549 cell assessed as inhibition of PGE2 production preincubated for 15 mins before substrate addition by RP-HPLC method
pIC50: −log10 of the molar value.
pIC50 by entry:
endpointName: pIC50

givenSmiles | systemTested | result
O=C(O)c1ccc(Cn2cc(-c3ccc(-c4ccc(O)cc4)cc3)nn2)c([N+](=O)[O-])c1 | Prostaglandin E synthase (Homo sapiens, UniProt O14684) | < 5.00
COc1cc(-c2ccc(-c3cn(Cc4ccc(C(=O)O)cc4[N+](=O)[O-])nn3)cc2)cc(OC)c1OC | Prostaglandin E synthase (Homo sapiens, UniProt O14684) | < 5.00
O=C(O)c1ccc(Cn2cc(-c3ccc(-c4cccc(C(=O)N5CCOCC5)c4)cc3)nn2)c([N+](=O)[O-])c1 | Prostaglandin E synthase (Homo sapiens, UniProt O14684) | < 5.00
O=C(O)c1ccc(Cn2cc(-c3ccc(-c4ccccc4COc4cc(C(F)(F)F)ccc4Cl)cc3)nn2)cc1 | Prostaglandin E synthase (Homo sapiens, UniProt O14684) | 6.00
O=C(O)c1ccc(Cn2cc(-c3ccc(-c4ccccc4)cc3)nn2)c([N+](=O)[O-])c1 | Prostaglandin E synthase (Homo sapiens, UniProt O14684) | > 5.49
COc1ccc(-c2ccc(-c3cn(Cc4ccc(C(=O)O)cc4[N+](=O)[O-])nn3)cc2)cc1CN1CCOCC1 | Prostaglandin E synthase (Homo sapiens, UniProt O14684) | < 5.00
Nc1cc(C(=O)O)ccc1Cn1cc(-c2ccc(-c3ccccc3COc3cc(C(F)(F)F)ccc3Cl)cc2)nn1 | Prostaglandin E synthase (Homo sapiens, UniProt O14684) | 6.17
Nc1ccc(-c2ccc(-c3cn(Cc4ccc(C(=O)O)cc4[N+](=O)[O-])nn3)cc2)cc1 | Prostaglandin E synthase (Homo sapiens, UniProt O14684) | < 5.00
